Please respond with reported inhibition at 1 µM for every item in the list.
target: FAAH (Mus musculus (Mouse), UniProt O08914); test: In vitro competitive activity-based protein profiling (mouse brain membrane fraction or cell lysates), FAAH band; assay type: biochemical; settings: 1 μM, mouse proteome; read-out: FAAH % Inh 1 μM (mouse)
Sequence (O08914 whole entry): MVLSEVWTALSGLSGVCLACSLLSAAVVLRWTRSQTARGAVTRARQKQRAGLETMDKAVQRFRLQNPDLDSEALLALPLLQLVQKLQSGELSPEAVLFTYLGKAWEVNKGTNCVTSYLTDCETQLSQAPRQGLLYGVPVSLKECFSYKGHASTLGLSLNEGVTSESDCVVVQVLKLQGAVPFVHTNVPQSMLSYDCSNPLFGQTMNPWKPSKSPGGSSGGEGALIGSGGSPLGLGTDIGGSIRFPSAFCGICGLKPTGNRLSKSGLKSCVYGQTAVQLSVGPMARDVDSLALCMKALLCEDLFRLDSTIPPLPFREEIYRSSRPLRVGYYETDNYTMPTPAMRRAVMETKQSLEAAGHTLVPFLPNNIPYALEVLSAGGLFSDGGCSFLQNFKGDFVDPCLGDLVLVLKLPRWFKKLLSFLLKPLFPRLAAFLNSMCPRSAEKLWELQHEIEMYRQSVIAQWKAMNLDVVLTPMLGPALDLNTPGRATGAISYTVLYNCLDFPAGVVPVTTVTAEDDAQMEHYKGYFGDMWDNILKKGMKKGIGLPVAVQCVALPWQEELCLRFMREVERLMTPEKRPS

Please look at the items below and tell me inhibition at 1 µM for each one, in order.
1. COC(=O)C1CCN(c2cc(C(F)(F)F)ccc2CN2CC3(CCN(C(=O)OC(C(F)(F)F)C(F)(F)F)CC3)CC2(C)C)CC1
2. O=C(OC(C(F)(F)F)C(F)(F)F)N1CCC2(CCCN2Cc2cccc(N3CCN(C4CC4)CC3)c2Cl)CC1
3. O=C(OC(C(F)(F)F)C(F)(F)F)N1CCC2(CCN(Cc3ccc(Cl)cc3N3CC4COCC4C3)C2)CC1 (centres unmarked)

-- reply
["< 25%", "< 25%", "< 25%"]

Report inhibition at 1 µM for each item below.
1. CC1(C)CC2(CCN(C(=O)OC(C(F)(F)F)C(F)(F)F)CC2)CN1Cc1c(N2CC3COCC3C2)cccc1C(F)(F)F (centres unmarked)
2. O=C(OC(C(F)(F)F)C(F)(F)F)N1CCC2(CCCN2Cc2ccc(Cl)c(N3CCCC3)c2)CC1

-- reply
< 25%
< 25%

Dear colleague, could you send me inhibition at 1 µM for each of the items below? Thanks.
1. CCOc1cccc(CN2CCCC23CCN(C(=O)OC(C(F)(F)F)C(F)(F)F)CC3)c1
2. O=C(OC(C(F)(F)F)C(F)(F)F)N1CCC2(CCN(Cc3ccc(C(F)(F)F)c(N4CCOCC4)c3)C2)CC1

-- reply
< 25%
< 25%
